# target.or.system: Epidermal growth factor receptor (Homo sapiens, UniProt P00533, C797S/L858R/T790M)
# method.summary: Inhibition of EGFR L858R/T790M/C797S triple mutant (unknown origin) using fluoresceine-labelled poly-GT peptide as substrate preincubated with enzyme for 3 hrs followed by substrate and ATP addition by TR-FRET assay
# Sequence (P00533 whole entry T790M/C797S/L858R): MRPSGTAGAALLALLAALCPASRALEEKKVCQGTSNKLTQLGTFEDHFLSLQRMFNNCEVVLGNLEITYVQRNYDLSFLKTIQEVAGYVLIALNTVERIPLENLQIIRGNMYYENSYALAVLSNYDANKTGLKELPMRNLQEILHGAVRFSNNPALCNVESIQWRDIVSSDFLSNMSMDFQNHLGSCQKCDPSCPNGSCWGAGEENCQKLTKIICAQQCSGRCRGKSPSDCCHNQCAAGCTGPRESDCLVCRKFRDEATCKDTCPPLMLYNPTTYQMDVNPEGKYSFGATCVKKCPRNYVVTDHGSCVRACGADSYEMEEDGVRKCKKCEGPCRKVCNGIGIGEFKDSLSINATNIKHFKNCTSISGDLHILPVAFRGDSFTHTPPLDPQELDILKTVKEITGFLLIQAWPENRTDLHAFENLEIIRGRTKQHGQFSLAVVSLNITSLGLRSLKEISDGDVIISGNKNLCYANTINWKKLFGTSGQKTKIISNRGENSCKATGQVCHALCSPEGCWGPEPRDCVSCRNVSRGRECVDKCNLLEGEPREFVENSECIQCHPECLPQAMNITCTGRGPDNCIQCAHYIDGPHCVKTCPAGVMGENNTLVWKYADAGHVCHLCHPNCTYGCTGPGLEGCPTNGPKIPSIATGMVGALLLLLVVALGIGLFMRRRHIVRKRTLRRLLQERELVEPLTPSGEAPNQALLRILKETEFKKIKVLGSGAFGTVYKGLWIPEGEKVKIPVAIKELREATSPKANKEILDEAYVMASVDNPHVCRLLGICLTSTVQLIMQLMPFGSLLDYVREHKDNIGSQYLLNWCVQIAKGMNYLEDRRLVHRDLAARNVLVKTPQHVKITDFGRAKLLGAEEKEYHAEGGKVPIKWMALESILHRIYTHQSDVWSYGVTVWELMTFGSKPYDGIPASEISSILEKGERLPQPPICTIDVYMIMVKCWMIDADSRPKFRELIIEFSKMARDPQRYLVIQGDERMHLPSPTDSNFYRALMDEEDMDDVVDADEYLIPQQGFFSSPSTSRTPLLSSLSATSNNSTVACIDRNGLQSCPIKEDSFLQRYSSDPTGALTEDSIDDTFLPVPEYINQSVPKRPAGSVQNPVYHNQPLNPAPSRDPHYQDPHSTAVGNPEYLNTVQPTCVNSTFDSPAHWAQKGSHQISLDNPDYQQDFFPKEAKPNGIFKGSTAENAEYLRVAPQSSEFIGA
assay.endpoint: IC50 (nM)
Hi! Could you send only the number? It should be in nM, unit omitted.

What measured IC50 goes with `COc1cc(N2CCN(C(C)=O)CC2)ccc1Nc1ncc(Cl)c(Nc2ccc(NCc3ccc(S(=O)(=O)F)cc3)cc2)n1` ?
1.5

What measured IC50 goes with `C#CCNC(=O)c1cc(Nc2cc(C3CC3)[nH]n2)nc(N2CCN(Cc3ccc(S(=O)(=O)F)cc3)CC2)n1` ?
6

* * *

# Tested on: BaF3
# method.summary: Cytotoxicity against mouse BaF3 cells harboring EGFR L858R/T790M/C797S triple mutant assessed as inhibition of cell proliferation measured after 72 hrs by MTS assay
# Format: functional, cell-based
# measurement.conditions: BaF3, 72 h
assay.endpoint: IC50 (nM)
Hi! Could you send only the number? It should be in nM, unit omitted.

What measured IC50 goes with `COc1cc(N2CCN(C(C)=O)CC2)ccc1Nc1ncc(Cl)c(Nc2ccc(NCc3ccc(S(=O)(=O)F)cc3)cc2)n1` ?
500

* * *

# target.or.system: Epidermal growth factor receptor (Homo sapiens, UniProt P00533, C797S/L858R/T790M)
# method.summary: Inhibition of EGFR L858R/T790M/C797S triple mutant (unknown origin) using […] preincubated with enzyme and ATP at Km for 3 hrs followed by substrate addition and measured after 1 hr by TR-FRET assay
# Sequence (P00533 25-1210 T790M/C797S/L858R limits assumed): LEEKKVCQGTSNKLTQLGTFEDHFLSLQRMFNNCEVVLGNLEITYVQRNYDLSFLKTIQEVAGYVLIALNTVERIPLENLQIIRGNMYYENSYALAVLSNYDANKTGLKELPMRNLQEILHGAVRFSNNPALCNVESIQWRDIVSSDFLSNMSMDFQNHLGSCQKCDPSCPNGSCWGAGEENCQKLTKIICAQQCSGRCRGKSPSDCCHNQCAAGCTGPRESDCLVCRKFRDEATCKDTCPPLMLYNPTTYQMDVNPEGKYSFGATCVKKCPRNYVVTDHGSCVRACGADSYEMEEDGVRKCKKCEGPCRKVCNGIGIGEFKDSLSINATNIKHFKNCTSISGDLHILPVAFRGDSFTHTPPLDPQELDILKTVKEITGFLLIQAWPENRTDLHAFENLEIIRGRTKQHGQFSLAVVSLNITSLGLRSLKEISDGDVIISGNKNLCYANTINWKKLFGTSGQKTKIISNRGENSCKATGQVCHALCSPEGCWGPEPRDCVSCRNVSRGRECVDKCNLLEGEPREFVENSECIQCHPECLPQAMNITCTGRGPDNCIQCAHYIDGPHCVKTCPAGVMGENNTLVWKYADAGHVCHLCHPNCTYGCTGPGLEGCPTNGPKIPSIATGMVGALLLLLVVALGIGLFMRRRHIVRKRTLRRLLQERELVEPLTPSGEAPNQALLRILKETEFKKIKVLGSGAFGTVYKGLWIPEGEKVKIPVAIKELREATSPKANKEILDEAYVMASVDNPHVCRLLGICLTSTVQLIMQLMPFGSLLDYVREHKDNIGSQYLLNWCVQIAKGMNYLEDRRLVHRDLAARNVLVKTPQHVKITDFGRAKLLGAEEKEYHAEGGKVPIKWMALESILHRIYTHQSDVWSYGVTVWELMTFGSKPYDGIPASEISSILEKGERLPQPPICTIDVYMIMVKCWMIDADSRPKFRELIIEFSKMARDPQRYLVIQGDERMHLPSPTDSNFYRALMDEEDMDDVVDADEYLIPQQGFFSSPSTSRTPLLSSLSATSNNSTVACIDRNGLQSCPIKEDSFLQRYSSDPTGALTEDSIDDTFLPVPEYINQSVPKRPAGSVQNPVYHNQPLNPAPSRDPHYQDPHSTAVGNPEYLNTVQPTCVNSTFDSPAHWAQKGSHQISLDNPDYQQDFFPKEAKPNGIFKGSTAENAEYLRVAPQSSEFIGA
assay.endpoint: pIC50
To interpret pIC50, take it as minus log10 of a concentration measured in moles per litre.

What measured pIC50 goes with `COc1cc(N2CCN(C(C)=O)CC2)ccc1Nc1ncc(Cl)c(Nc2ccc(NCc3ccc(S(=O)(=O)F)cc3)cc2)n1` ?
8.55

* * *

# target.or.system: Epidermal growth factor receptor (Homo sapiens, UniProt P00533)
# Sequence (P00533 whole entry): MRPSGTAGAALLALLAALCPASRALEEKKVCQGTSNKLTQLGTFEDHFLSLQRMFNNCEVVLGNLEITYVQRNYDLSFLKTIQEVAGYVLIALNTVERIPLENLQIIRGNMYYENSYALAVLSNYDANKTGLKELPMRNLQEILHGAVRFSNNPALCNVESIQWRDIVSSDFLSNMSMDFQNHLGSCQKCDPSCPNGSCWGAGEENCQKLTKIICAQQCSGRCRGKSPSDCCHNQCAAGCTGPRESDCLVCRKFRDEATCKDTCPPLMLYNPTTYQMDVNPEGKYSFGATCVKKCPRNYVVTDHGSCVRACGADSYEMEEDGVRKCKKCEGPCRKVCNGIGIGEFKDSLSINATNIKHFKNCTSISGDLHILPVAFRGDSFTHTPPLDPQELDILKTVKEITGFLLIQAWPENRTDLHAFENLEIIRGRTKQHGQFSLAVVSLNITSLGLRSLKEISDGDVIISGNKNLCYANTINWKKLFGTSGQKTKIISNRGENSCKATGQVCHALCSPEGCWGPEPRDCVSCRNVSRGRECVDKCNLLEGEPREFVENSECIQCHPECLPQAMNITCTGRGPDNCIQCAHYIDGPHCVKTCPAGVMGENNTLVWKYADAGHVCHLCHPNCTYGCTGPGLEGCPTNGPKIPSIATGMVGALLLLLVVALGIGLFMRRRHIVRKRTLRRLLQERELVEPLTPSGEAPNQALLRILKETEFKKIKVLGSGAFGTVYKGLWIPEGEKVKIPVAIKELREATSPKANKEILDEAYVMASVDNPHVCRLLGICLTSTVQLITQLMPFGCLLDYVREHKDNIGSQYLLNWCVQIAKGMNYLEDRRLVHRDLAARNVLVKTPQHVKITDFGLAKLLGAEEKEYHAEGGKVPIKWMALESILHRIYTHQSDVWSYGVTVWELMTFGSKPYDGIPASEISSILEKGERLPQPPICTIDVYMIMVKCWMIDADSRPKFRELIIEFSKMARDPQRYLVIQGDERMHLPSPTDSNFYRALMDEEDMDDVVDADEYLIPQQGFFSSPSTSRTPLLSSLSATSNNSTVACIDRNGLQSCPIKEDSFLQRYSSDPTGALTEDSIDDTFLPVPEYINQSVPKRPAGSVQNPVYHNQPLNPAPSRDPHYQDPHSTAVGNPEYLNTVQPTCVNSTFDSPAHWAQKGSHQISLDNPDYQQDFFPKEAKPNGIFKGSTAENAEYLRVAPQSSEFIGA
# Type: ADME
# Description: Inhibition of wild type EGFR (unknown origin) using fluoresceine-labelled poly-GT peptide as substrate incubated for 1 hr by TR-FRET assay
assay.endpoint: pIC50
To interpret pIC50, take it as minus log10 of a concentration measured in moles per litre.

What measured pIC50 goes with `COc1cc(N2CCN(C(C)=O)CC2)ccc1Nc1ncc(Cl)c(Nc2ccc(NCc3ccc(S(=O)(=O)F)cc3)cc2)n1` ?
6.68

* * *

# target.or.system: Epidermal growth factor receptor (Homo sapiens, UniProt P00533, C797S/L858R/T790M)
# method.summary: Inhibition of EGFR L858R/T790M/C797S triple mutant (unknown origin) using […] preincubated with enzyme and ATP at 10XKm for 3 hrs followed by substrate addition and measured after 1 hr by TR-FRET assay
assay.endpoint: pIC50
To interpret pIC50, take it as minus log10 of a concentration measured in moles per litre.

What measured pIC50 goes with `COc1cc(N2CCN(C(C)=O)CC2)ccc1Nc1ncc(Cl)c(Nc2ccc(NCc3ccc(S(=O)(=O)F)cc3)cc2)n1` ?
7.64

* * *

# target.or.system: Epidermal growth factor receptor (Homo sapiens, UniProt P00533, C797S/L858R/T790M)
# method.summary: Inhibition of EGFR L858R/T790M/C797S triple mutant (unknown origin) using fluoresceine-labelled poly-GT peptide as substrate incubated for 1 hr by TR-FRET assay
Collected pIC50 values appear next to each entry.
To interpret pIC50, take it as minus log10 of a concentration measured in moles per litre.

Reference set, count: 5
[
  {
    "smiles.entry": "COc1cc(N2CCN(C(C)=O)CC2)ccc1Nc1ncc(Cl)c(Nc2cccc(NC(=O)CCl)c2)n1",
    "pIC50": 6.02
  },
  {
    "smiles.entry": "COc1cc(N2CCN(C(C)=O)CC2)ccc1Nc1ncc(Cl)c(Nc2cccc(NCCS(=O)(=O)F)c2)n1",
    "pIC50": 6.34
  },
  {
    "smiles.entry": "C=CS(=O)(=O)Nc1cccc(Nc2nc(Nc3ccc(N4CCN(C(C)=O)CC4)cc3OC)ncc2Cl)c1",
    "pIC50": 6.17
  },
  {
    "smiles.entry": "C#CCNC(=O)c1cc(Nc2cc(C3CC3)[nH]n2)nc(N2CCN(Cc3ccc(S(=O)(=O)F)cc3)CC2)n1",
    "pIC50": 6.61
  },
  {
    "smiles.entry": "COc1cc(N2CCN(C(C)=O)CC2)ccc1Nc1ncc(Cl)c(Nc2ccc(NCc3ccc(S(=O)(=O)F)cc3)cc2)n1",
    "pIC50": 6.96
  }
]

What measured pIC50 goes with `COc1cc(N2CCN(C(C)=O)CC2)ccc1Nc1ncc(Cl)c(Nc2cccc(NC(C)=O)c2)n1` ?
5.96
